molecular target: UniProt:P13569; test: inside-out patch clamp, inhibition of ATP-dependent channel open probability
Sequence (P13569 whole entry): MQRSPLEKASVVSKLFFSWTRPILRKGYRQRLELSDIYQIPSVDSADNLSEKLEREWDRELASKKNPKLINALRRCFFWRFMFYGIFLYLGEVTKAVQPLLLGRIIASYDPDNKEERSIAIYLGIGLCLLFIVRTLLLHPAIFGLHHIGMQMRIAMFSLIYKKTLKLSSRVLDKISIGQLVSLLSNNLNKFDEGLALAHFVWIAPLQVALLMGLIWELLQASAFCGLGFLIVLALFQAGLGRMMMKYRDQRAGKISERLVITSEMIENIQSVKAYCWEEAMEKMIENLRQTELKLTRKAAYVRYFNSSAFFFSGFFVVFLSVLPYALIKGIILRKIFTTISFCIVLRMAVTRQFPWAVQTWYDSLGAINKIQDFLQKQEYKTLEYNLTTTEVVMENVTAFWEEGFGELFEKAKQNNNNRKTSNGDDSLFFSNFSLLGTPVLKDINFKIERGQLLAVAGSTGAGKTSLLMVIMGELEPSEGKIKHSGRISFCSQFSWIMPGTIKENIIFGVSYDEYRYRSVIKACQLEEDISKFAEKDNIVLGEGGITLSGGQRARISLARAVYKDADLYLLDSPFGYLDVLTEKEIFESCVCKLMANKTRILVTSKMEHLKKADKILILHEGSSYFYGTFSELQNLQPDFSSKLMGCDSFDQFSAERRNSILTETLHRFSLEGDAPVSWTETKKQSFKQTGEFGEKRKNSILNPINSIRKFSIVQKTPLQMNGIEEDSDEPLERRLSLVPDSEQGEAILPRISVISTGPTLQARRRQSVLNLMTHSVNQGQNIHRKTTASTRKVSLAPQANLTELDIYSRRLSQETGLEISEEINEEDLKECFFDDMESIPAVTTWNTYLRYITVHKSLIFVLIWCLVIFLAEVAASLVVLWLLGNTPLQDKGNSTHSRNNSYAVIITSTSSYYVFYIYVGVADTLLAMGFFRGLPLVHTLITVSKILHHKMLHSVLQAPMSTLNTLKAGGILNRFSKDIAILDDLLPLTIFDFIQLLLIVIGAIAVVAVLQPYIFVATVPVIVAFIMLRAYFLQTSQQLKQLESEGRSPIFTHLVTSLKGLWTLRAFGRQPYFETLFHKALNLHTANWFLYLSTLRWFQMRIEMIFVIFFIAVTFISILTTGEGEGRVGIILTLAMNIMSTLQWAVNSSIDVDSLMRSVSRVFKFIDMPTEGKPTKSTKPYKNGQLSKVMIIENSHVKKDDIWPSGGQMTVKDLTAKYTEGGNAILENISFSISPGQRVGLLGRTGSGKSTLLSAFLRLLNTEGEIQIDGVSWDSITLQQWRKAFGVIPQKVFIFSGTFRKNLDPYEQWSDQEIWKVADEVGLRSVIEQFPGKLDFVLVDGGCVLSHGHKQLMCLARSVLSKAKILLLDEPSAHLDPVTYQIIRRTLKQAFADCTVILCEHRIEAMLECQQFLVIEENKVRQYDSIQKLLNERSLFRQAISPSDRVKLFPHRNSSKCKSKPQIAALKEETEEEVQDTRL

structureString | Ki
Nc1ncnc2c1ncn2[C@@H]1O[C@H](COP(=O)(O)OP(=O)(O)O)[C@@H](O)[C@H]1O | 16 µM

Where do the numbers come from? From paper PMC2216945.
